# system name: Jak2 (UniProt O60674)
# Sequence (O60674 whole entry, looked up): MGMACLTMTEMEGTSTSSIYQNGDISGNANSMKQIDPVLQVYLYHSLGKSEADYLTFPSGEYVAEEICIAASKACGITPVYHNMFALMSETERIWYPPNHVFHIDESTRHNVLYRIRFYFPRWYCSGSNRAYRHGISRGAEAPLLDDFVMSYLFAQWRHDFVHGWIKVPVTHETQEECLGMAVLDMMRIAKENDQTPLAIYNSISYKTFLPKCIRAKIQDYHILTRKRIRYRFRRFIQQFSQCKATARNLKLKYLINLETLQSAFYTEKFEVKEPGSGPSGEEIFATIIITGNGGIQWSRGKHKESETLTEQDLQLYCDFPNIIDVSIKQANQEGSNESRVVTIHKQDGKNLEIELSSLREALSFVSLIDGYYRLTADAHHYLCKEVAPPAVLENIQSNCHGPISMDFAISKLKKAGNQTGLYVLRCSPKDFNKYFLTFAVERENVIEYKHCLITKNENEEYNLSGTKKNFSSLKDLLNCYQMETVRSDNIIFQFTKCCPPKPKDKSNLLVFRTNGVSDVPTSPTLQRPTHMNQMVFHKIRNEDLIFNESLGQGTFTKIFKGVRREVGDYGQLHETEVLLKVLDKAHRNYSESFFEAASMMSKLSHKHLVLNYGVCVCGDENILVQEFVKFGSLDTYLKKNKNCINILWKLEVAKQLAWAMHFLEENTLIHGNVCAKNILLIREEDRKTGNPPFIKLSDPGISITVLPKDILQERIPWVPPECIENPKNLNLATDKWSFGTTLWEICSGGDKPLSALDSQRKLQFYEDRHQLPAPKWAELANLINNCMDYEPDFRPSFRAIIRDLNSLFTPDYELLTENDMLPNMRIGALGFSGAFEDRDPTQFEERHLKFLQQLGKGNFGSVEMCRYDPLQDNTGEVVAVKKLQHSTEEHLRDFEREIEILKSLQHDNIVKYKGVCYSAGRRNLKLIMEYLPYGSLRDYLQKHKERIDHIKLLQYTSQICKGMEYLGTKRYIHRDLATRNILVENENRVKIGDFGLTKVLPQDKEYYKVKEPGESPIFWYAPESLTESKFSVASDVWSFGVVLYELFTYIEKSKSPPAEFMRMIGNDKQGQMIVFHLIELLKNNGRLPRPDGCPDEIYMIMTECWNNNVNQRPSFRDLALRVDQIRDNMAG
# measurement notes: phosphorylation enrichment, bacterial display (enrichment ratio); higher = better substrate or ligand; peptides without Tyr show the background;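 note: 11-residue human phosphosite peptides and single-mutation variants displayed on the E. coli surface, counted by deep sequencing, each peptide's frequency after selection divided by its frequency in the unselected input library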;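 note: frequency after pTyr selection over input frequency; kinase dosed for 20-30% of maximal phosphorylation in three min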
endpoint: phosphorylation enrichment
Note: the reply should be a number with no unit written.

Per the reported Jak2 (UniProt O60674) data, NAPNSYGRRPI [CDKN2A_Y44] has phosphorylation enrichment of 0.76

Per the reported Jak2 (UniProt O60674) data, PSQRRYLYYYS [PTEN_Y174_V175L] has phosphorylation enrichment of 1.99

Per the reported Jak2 (UniProt O60674) data, LSSISYVGCSL [ADGRD1_Y571] has phosphorylation enrichment of 0.871

---

# system name: FGFR1 (UniProt P11362)
# Sequence (P11362 whole entry, looked up): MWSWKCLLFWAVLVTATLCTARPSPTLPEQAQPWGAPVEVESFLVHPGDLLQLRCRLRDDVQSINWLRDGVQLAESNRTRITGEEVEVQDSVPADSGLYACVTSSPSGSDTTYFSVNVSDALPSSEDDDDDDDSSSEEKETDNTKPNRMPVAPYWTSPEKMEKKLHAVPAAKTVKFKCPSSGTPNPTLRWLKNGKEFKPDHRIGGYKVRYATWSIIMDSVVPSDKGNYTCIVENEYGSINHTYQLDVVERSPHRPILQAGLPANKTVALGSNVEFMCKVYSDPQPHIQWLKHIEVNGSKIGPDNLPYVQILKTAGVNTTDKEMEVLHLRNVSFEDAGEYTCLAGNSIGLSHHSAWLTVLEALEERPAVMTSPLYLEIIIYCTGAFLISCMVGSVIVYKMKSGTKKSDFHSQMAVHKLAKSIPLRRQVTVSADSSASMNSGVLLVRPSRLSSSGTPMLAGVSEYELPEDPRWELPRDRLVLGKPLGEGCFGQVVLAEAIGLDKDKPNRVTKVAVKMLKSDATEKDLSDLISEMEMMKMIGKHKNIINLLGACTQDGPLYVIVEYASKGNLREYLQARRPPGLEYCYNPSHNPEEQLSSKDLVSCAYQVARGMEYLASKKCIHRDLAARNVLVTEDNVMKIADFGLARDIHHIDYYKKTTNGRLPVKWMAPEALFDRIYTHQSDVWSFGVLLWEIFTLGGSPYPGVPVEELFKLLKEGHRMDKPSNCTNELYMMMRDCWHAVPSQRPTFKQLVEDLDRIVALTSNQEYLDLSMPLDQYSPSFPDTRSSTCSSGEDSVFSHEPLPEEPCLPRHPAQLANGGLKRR
# measurement notes: phosphorylation enrichment, bacterial display (enrichment ratio); higher = better substrate or ligand; peptides without Tyr show the background
Classification field: Fulfilled = phosphorylation enrichment at or over 0.5; Not fulfilled = phosphorylation enrichment under 0.5.

Kindly determine if phosphorylation enrichment recorded for DGYTDYAEFAK [MCFD2_Y138_I136T] is above or exactly 0.5.
Fulfilled

Kindly determine if phosphorylation enrichment recorded for IHADIYRWFNI [MARS1_Y344] is above or exactly 0.5.
Fulfilled

Kindly determine if phosphorylation enrichment recorded for PEACDYGLGGG [GSTO1_Y239] is above or exactly 0.5.
Fulfilled

Kindly determine if phosphorylation enrichment recorded for TTGGFYSFGGG [KRT24_Y120_A115T_YF] is above or exactly 0.5.
Not fulfilled

Kindly determine if phosphorylation enrichment recorded for LQEKSYIKGTS [LCTL_Y331] is above or exactly 0.5.
Fulfilled

Kindly determine if phosphorylation enrichment recorded for STEAIYWRFSK [SH3PXD2B_Y42_R43W_YF] is above or exactly 0.5.
Fulfilled

Kindly determine if phosphorylation enrichment recorded for CLGNQYVNVMN [SLC3A1_Y461_R456C] is above or exactly 0.5.
Fulfilled

Kindly determine if phosphorylation enrichment recorded for FSQNIYIQNRN [PKP2_Y631_YF] is above or exactly 0.5.
Fulfilled

Kindly determine if phosphorylation enrichment recorded for VFSIDYFRVGG [NTRK2_Y706_T704I_YF] is above or exactly 0.5.
Fulfilled

Kindly determine if phosphorylation enrichment recorded for FAFQLYDLDPD [CHP2_Y123_R127P_YF] is above or exactly 0.5.
Fulfilled

Kindly determine if phosphorylation enrichment recorded for SLFPGYNFRFA [P2RX7_Y291_YF] is above or exactly 0.5.
Not fulfilled

Kindly determine if phosphorylation enrichment recorded for EMTAEYACTRK [ACAD9_Y325] is above or exactly 0.5.
Not fulfilled

Kindly determine if phosphorylation enrichment recorded for REDIFYTSKLW [AKR1C2_Y81] is above or exactly 0.5.
Fulfilled

Kindly determine if phosphorylation enrichment recorded for SLLTDCSPQLQ [OTC_Y345_Y345C] is above or exactly 0.5.
Fulfilled

Kindly determine if phosphorylation enrichment recorded for AGQEKYSAMRD [HRAS_Y64_E63K] is above or exactly 0.5.
Not fulfilled

Kindly determine if phosphorylation enrichment recorded for FADIAYSYRHG [PAH_Y166_N167S] is above or exactly 0.5.
Fulfilled

Kindly determine if phosphorylation enrichment recorded for ASMAKYFASGI [ACADSB_Y372_E376G_YF] is above or exactly 0.5.
Not fulfilled

Kindly determine if phosphorylation enrichment recorded for RPSRQYATRDV [SCAMP3_Y35_L38R] is above or exactly 0.5.
Not fulfilled

Kindly determine if phosphorylation enrichment recorded for KVKPIYFRTQG [AR_Y916_H918R] is above or exactly 0.5.
Not fulfilled

Kindly determine if phosphorylation enrichment recorded for CTTIHYNNMCN [TP53_Y234_Y236N] is above or exactly 0.5.
Not fulfilled

Kindly determine if phosphorylation enrichment recorded for SVTCTHSPALN [TP53_Y126_Y126H] is above or exactly 0.5.
Not fulfilled

Kindly determine if phosphorylation enrichment recorded for KPNMNYDKLSW [FLI1_Y332_R337W] is above or exactly 0.5.
Not fulfilled

Kindly determine if phosphorylation enrichment recorded for RIGRKYKKVRF [F8_Y442] is above or exactly 0.5.
Not fulfilled

Kindly determine if phosphorylation enrichment recorded for MAALSYVSEIG [BPIFB2_Y36_K31M] is above or exactly 0.5.
Not fulfilled

Kindly determine if phosphorylation enrichment recorded for LYDPDYMKVIL [CYP4A22_Y104] is above or exactly 0.5.
Fulfilled

Kindly determine if phosphorylation enrichment recorded for KVGNEYITKGQ [MYH7_Y410_V411I] is above or exactly 0.5.
Not fulfilled

Kindly determine if phosphorylation enrichment recorded for VAFLFYKSIGP [ADGRL4_Y302_V300L_YF] is above or exactly 0.5.
Fulfilled

Kindly determine if phosphorylation enrichment recorded for SSKILYHIIKG [CDH17_Y489] is above or exactly 0.5.
Fulfilled

Kindly determine if phosphorylation enrichment recorded for TSSGGYRRTPS [ABI1_Y333] is above or exactly 0.5.
Not fulfilled

Kindly determine if phosphorylation enrichment recorded for IGCHAYGDQFR [IDH1_Y135_R132C_YF] is above or exactly 0.5.
Fulfilled

Kindly determine if phosphorylation enrichment recorded for KFRREYILSLE [GPC3_Y299_W296R_YF] is above or exactly 0.5.
Fulfilled

Kindly determine if phosphorylation enrichment recorded for MPQNEYIELHC [NSA2_Y6_R11C] is above or exactly 0.5.
Fulfilled

Kindly determine if phosphorylation enrichment recorded for LKRCQYVTEKV [ALDOA_Y204] is above or exactly 0.5.
Fulfilled

Kindly determine if phosphorylation enrichment recorded for DLRGIYQKLVI is above or exactly 0.5.
Fulfilled

Kindly determine if phosphorylation enrichment recorded for EQQNMYRLKVL [ABCC6_Y372] is above or exactly 0.5.
Fulfilled

Kindly determine if phosphorylation enrichment recorded for PRLMLYNPTTF [EGFR_Y270_P266R_YF] is above or exactly 0.5.
Fulfilled

Kindly determine if phosphorylation enrichment recorded for GGDQPYSGAGD [TYRO3_Y828_R824G] is above or exactly 0.5.
Not fulfilled

Kindly determine if phosphorylation enrichment recorded for RLGDLYEEEMR [VIM_Y150] is above or exactly 0.5.
Not fulfilled

Kindly determine if phosphorylation enrichment recorded for YSMGCYEIYLG [HMGCL_Y198_S201Y] is above or exactly 0.5.
Fulfilled

Kindly determine if phosphorylation enrichment recorded for TQPSPYAVFRF [RPGRIP1_Y823_YF] is above or exactly 0.5.
Fulfilled
